Tested Target: UniProtKB P31645
Sequence (P31645 whole entry): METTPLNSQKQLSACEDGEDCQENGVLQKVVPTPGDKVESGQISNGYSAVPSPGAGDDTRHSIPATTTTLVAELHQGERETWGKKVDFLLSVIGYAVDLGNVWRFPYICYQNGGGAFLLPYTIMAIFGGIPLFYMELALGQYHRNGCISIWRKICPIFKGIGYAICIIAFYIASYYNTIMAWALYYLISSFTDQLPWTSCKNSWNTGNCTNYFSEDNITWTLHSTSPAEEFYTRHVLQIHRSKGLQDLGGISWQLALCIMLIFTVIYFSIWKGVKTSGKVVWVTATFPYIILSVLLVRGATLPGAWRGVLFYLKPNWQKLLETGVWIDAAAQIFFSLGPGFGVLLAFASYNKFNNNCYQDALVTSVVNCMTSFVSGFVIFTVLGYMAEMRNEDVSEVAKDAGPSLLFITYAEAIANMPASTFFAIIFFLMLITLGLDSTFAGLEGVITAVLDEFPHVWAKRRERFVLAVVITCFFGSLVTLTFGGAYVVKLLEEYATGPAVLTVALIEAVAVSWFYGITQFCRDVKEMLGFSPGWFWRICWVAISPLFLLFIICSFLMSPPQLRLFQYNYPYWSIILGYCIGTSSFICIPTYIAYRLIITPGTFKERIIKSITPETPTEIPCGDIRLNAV
Assay Remarks: [3H]5-HT uptake inhibition in HEK 293 cells overexpressing human SERT
Format: cell-based
Experimental Context: read-out: SERT IC50; 5-HT uptake inhibition; mean and 95% confidence interval
IC50 strictly less than 20 µM = true (1). Otherwise false (0).

CCCC(C(=O)c1ccc(O)c(O)c1)N1CCCC1 (stereo not drawn) [HHPV, 3,4-dihydroxypyrovalerone] : false (0)

We now examine a further molecule.
For this molecule, is IC50 lower than 20 µM? CCCC(C(=O)c1ccc(O)c(OC)c1)N1CCCC1 (stereo not drawn) [HMPV, 4-hydroxy-3-methyoxypyrovalerone]
false (0)

====

Entries annotated with measured Ki
Tested Target: mouse TAAR1 (Mus musculus)
Sequence (Q923Y8 whole entry): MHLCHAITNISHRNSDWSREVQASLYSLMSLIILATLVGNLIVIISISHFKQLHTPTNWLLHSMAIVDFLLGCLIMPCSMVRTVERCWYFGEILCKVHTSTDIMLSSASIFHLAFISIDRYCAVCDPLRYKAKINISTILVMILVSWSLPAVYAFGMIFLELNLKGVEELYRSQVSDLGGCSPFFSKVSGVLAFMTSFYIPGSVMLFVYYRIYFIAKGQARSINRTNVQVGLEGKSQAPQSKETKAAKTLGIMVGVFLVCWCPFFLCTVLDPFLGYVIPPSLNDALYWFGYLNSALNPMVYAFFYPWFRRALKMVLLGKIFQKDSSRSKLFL
Assay Remarks: Radioligand binding, [3H]RO5166017 displacement
Experimental Context: read-out: TAAR1mouse Ki; mean±SD, n=3

CCCC(C(=O)c1ccc2c(c1)OCO2)N1CCCC1 (stereo not drawn) [MDPV, 3,4-methylenedioxypyrovalerone, reference compound] : > 4.7 µM
CC(N)C(=O)c1ccc2c(c1)OCO2 (stereo not drawn) : 3.5 µM
CCCC(C(=O)c1ccc(O)c(OC)c1)N1CCCC1 (stereo not drawn) [HMPV, 4-hydroxy-3-methyoxypyrovalerone] : > 4.4 µM

Give its Ki value. Item: CCCC(C(=O)c1ccc(O)c(O)c1)N1CCCC1 (stereo not drawn) [HHPV, 3,4-dihydroxypyrovalerone]
> 4.4 µM

Give its Ki value. Item: CNC(C)C(=O)c1ccc(O)c(OC)c1 (stereo not drawn) [HMMC, 4-hydroxy-3-methyoxymethcathinone]
> 4.4 µM

Give its Ki value. Item: CNC(C)Cc1ccc(O)c(OC)c1 (stereo not drawn) [HMMA, 4-hydroxy-3-methoxymethamphetamine]
0.45 µM

Give its Ki value. Item: COc1cc(CC(C)N)ccc1O (stereo not drawn) [HMA, 4-hydroxy-3-methyoxyamphetamine]
0.05 µM

Give its Ki value. Item: CNC(C)Cc1ccc(O)c(O)c1 (stereo not drawn) [HHMA, 3,4-dihydroxymethamphetamine]
> 4.4 µM

Give its Ki value. Item: CNC(C)C(=O)c1ccc(O)c(O)c1 (stereo not drawn) [HHMC, 3,4-Dihydroxymethcathinone]
> 4.4 µM

====

Tested Target: UniProt:P35348
Sequence (P35348 whole entry): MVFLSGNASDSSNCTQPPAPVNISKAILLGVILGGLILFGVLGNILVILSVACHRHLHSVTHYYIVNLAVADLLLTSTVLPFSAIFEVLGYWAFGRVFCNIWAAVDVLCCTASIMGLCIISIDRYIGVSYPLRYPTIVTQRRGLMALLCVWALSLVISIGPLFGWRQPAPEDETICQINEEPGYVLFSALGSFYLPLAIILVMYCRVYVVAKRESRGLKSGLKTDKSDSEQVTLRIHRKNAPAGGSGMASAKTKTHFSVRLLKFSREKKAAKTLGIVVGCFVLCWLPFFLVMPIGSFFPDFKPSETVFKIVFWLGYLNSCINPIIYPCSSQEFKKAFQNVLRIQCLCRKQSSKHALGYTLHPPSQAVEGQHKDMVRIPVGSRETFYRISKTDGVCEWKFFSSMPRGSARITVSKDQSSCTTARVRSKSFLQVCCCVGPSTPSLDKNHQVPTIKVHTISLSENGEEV
Assay Remarks: Radioligand binding, [3H]prazosin displacement
pKi: −log10 of the molar value.
Readout Type: pKi

Example molecules with recorded pKi:
CNC(C)C(=O)c1ccc2c(c1)OCO2 (stereo not drawn) [Methylone, 3,4-methylenedioxymethcathinone, reference compound] : < 5.02
CC(N)Cc1ccc(O)c(O)c1 (stereo not drawn) [HHA, 3,4-Dihydroxyamphetamine] : < 5.02

Could you now look at the following molecule, please?
Give its pKi value. Item: CC(N)Cc1ccc2c(c1)OCO2 (stereo not drawn) [MDA, 3,4-methylenedioxyamphetamine, reference compound]
5.06

====

Tested Target: rat TAAR1 (Rattus norvegicus)
Sequence (Q923Y9 whole entry): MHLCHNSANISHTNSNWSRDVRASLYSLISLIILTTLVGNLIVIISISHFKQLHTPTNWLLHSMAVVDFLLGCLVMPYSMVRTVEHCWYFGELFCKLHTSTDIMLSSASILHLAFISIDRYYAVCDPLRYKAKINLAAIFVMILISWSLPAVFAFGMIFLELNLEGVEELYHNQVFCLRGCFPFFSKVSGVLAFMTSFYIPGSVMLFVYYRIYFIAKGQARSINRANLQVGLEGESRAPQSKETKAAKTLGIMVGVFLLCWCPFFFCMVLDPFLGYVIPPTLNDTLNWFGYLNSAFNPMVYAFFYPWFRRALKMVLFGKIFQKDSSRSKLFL
Assay Remarks: Radioligand binding, [3H]RO5166017 displacement
Readout Type: pKi
A value of pKi is the negative decimal logarithm of a concentration given in moles per litre.

Example compounds with recorded pKi:
CC(N)Cc1ccc(O)c(O)c1 (stereo not shown) [HHA, 3,4-Dihydroxyamphetamine] : 5.72
CC(N)Cc1ccc2c(c1)OCO2 (stereo not shown) [MDA, 3,4-methylenedioxyamphetamine, reference compound] : 6.66

Give its pKi value. Item: CNC(C)Cc1ccc2c(c1)OCO2 (stereo not shown) [MDMA, 3,4-Methylenedioxymethamphetmine, reference compound]
6.60

meta.source: paper PMC8269116
